Could you please report measured pIC50 for the items listed next?
# Target Of Assay: histidine kinase HK853 (Thermotoga maritima, UniProt Q9WZV7)
# Sequence (Q9WZV7 232-489): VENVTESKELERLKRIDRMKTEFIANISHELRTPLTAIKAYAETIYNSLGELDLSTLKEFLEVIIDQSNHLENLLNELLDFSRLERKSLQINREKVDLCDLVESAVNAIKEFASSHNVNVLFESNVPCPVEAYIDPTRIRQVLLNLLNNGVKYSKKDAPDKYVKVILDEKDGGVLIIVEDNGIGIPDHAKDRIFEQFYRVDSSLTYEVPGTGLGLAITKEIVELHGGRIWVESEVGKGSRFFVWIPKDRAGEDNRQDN
# Protocol Text: biochemical
# Run Parameters: IC50, sulfonyl fluoride side chains, Example 4
In plain terms, pIC50 is the concentration in mol/L turned into minus its base-10 logarithm.

Bench note: what pIC50 did Nc1ncnc2c1ncn2C1OC(COC(=O)c2ccc(S(=O)(=O)F)cc2)C(O)C1O (centres unmarked) [6-O-benzoyl adenosine, R=SO2F] show?
5.28

Bench note: what pIC50 did Nc1nc2ccc(NCc3ccc(S(=O)(=O)F)cc3)cc2s1 [riluzole analog with benzyl SO2F] show?
5.68

###

# Target Of Assay: histidine kinase HK853 (Thermotoga maritima)
# Protocol Text: biochemical
Could you please report measured IC50 for the items listed next?
Respond with the bare value in µM.

Bench note: what IC50 did `c1ccc(Nc2ncnc3nc[nH]c23)cc1` show?
7.6

Bench note: what IC50 did `Clc1ccc(Nc2ncnc3[nH]cnc23)cc1` show?
1700

Bench note: what IC50 did CCCN(CCC)c1ncnc2c1ncn2C1OC(CO)C(O)C1O (stereo not drawn) show?
1100

Bench note: what IC50 did Nc1ncnc2c1ncn2C1OC(COC(=O)c2ccccc2)C(O)C1O (stereo not drawn) show?
192

Bench note: what IC50 did Nc1ncnc2c1ncn2C1OC(CO)C(O)C1O (stereo not drawn) show?
445

Bench note: what IC50 did `Fc1ccc(Nc2ncnc3[nH]cnc23)cc1` show?
1900

Cited source for all entries: patent US11452714B2
